assay: Bioavailability after single dose: sublingual tablets (Examples I-III) versus conventional oral tablets, crossed randomized studies; conditions: male, human, plasma, other: sublingual
Quick reference for concentration at 6 h among some compounds
MEASURED_QUANTITY: concentration at 6 h (ng/mL)

- COMPOUND: "O=C1Nc2ccc(Cl)cc2C(c2ccccc2Cl)=NC1O (centres unmarked)"
  REPORTED_RESULT: 22.8
- COMPOUND: "O=C1CN=C(c2ccccn2)c2cc(Br)ccc2N1"
  REPORTED_RESULT: 57.1

---

assay: Bioavailability after single dose: sublingual tablets (Examples I-III) versus conventional oral tablets, crossed randomized studies; conditions: male, human, plasma, other: sublingual
Quick reference for concentration at 40 min among some compounds
MEASURED_QUANTITY: concentration at 40 min (ng/mL)

- COMPOUND: "O=C1Nc2ccc(Cl)cc2C(c2ccccc2Cl)=NC1O (centres unmarked) [LORAZEPAM, lorazepam]"
  REPORTED_RESULT: 56.5
- COMPOUND: "O=C1CN=C(c2ccccn2)c2cc(Br)ccc2N1 [BROMAZEPAN, bromazepam]"
  REPORTED_RESULT: 109

---

experiment: Bioavailability after single dose: sublingual tablets (Examples I-III) versus conventional oral tablets, crossed randomized studies; details: male, human, plasma, po
Quick reference for concentration among some compounds

- COMPOUND: "O=C1CN=C(c2ccccn2)c2cc(Br)ccc2N1 [BROMAZEPAN, bromazepam]"
  concentration / ng/mL: 70.2
- COMPOUND: "O=C1Nc2ccc(Cl)cc2C(c2ccccc2Cl)=NC1O (centres unmarked) [LORAZEPAM, lorazepam]"
  concentration / ng/mL: 33.4

Taken from patent US8168625B2.
